The entries below come with measured AUC(0-inf) values attached.
Assay: AUCinf in rat at 10 mg/kg, po
Format: ADME, organism-based
Set-up: route oral, time infinity, dose 10 mg/kg
Conditions: in vivo
Unit µM·h implied. Number only.

Example entries begin here.
# MOLECULE, RECORDED NUMBER
rows = [
    ("NC(=O)c1cnc(NC23CC(C2)C3)nc1N[C@@H]1CCC[C@H](O)C1", 2.25),
    ("CC(C)(C)Nc1ncc(C(N)=O)c(N[C@@H]2CCC[C@H](O)C2)n1", 10.8),
]

Kindly note the recorded AUC(0-inf) for C[C@@H]1CC[C@@H](Nc2nc(NC(C)(C)C)ncc2C(N)=O)C[C@H]1O [CC-90001] , which is 35.5
